Cited source for all entries: ChEMBL document CHEMBL3632542

molecular target: Acetylcholinesterase (Homo sapiens, UniProt P22303); test: Inhibition of human AChE
Sequence (P22303 whole entry): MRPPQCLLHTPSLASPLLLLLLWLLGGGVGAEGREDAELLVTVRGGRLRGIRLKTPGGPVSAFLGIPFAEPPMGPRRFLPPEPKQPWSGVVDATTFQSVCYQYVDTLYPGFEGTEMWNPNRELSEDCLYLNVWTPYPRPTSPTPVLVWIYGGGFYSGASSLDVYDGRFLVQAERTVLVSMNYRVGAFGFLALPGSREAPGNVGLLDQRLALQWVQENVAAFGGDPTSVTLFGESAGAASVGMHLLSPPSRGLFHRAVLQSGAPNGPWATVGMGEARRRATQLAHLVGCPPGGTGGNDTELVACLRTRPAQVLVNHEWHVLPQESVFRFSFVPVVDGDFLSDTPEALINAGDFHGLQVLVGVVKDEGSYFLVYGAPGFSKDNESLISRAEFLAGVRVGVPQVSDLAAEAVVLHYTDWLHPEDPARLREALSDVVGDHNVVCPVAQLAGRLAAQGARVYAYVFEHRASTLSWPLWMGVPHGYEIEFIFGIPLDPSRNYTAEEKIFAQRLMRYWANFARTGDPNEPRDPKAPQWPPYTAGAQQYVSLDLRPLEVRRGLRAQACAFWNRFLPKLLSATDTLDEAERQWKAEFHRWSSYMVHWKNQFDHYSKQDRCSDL
IC50 for assorted compounds

Guide cases for IC50, answers given:
>>> observed_result("COc1cc(-c2cc3c(c(=O)o2)C[C@]2(O)[C@@]4(C)C(=O)C=CC(C)(C)[C@]4(O)CC[C@@]2(C)O3)cc(OC)c1O")
"6.8 nM"
>>> observed_result("COc1cc(-c2cc3c(c(=O)o2)C[C@]2(O)[C@@]4(C)C(=O)C=CC(C)(C)[C@]4(O)CC[C@@]2(C)O3)cc(OC)c1OC [TERRITREM B]")
"7.6 nM"

Give its IC50 value. Item: `COc1ccc(-c2cc3c(c(=O)o2)C[C@]2(O)[C@@]4(C)CC[C@@H](OC(C)=O)C(C)(C)[C@]4(O)CC[C@@]2(C)O3)cc1` 3500 nM

// repeat for `COc1ccc(-c2cc3c(c(=O)o2)C[C@]2(O)[C@@]4(C)[C@@H](O)C[C@@H](OC(C)=O)C(C)(C)[C@]4(O)CC[C@@]2(C)O3)cc1` and report > 100000 nM

---

Values of IC50 reported for Acetylcholinesterase (Homo sapiens) appear below.

>>> observed_result("COc1ccc(-c2cc3c(c(=O)o2)C[C@H]2[C@@](C)(CC[C@@]4(O)C(C)(C)C(=O)CC[C@]24C)O3)cc1")
"2.5 µM"
>>> observed_result("COc1ccc(-c2cc3c(c(=O)o2)C[C@H]2[C@@](C)(CC[C@@]4(O)C(C)(C)[C@H](O)CC[C@]24C)O3)cc1")
"> 100 µM"
>>> observed_result("COc1ccc(-c2cc3c(c(=O)o2)C[C@@H]2[C@@]4(C)CC[C@H](O)C(C)(C)[C@@H]4CC[C@@]2(C)O3)cc1")
"> 100 µM"

Here's the next entry for you.
Which measured IC50 belongs to `COc1ccc(-c2cc3c(c(=O)o2)C[C@@H]2[C@@]4(C)CCC(=O)C(C)(C)[C@@H]4CC[C@@]2(C)O3)cc1` , tested on Acetylcholinesterase (Homo sapiens)? > 100 µM
